TEST_TARGET: MAGL (Homo sapiens (Human), UniProt Q99685)
ENDPOINT: IC50 (nM)

O=C1CO[C@H]2CCN(C(=O)N3CCCC(COc4ccc(F)cc4Cl)CC3)C[C@H]2N1 (stereo partly shown) [Example 140]; 59

(I) O=C1CO[C@H]2CCN(C(=O)N3CCC(COc4ccccc4Cl)C3)C[C@H]2N1 (stereo partly shown) [Example 91]
(II) O=C1CO[C@H]2CCN(C(=O)N3CCCC(COc4ccc(F)cc4Cl)CC3)C[C@H]2N1 (stereo partly shown) [Example 141]
(III) COc1cc(COC2CN(C(=O)N3CC[C@@H]4OCC(=O)N[C@@H]4C3)C2)ccc1C(F)(F)F [Example 88]
query: Exam item: list the entries in increasing order of IC50. List the labels according to the requested ordering.
result: III, II, I
(III: 5 nM, II: 40 nM, I: 99 nM)

====

TEST_TARGET: MAGL (recombinant wild-type) (Homo sapiens (Human), UniProt Q99685)
Sequence (Q99685 whole entry, species assumed): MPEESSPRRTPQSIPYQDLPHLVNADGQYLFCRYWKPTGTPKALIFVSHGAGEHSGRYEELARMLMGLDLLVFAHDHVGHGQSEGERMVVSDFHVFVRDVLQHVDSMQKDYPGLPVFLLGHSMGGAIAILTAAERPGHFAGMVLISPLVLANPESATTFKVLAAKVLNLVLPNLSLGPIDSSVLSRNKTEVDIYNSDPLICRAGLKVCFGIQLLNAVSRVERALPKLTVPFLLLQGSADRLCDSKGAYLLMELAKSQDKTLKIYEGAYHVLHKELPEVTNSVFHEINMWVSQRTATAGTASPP
EXPERIMENTAL_DETAILS: 4-NPA assay: MAGL inhibitory activity by hydrolysis of 4-nitrophenylacetate (absorbance at 405 nm)
MEASUREMENT_PARAMETERS: measured in 4-NPA assay (footnote [a]); 1 nM MAGL, 300 μM 4-nitrophenylacetate
ENDPOINT: IC50 (µM)

Take a look at these entries with their results.
O=C1CO[C@H]2CCN(C(=O)N3CC(COc4ccc(C(F)(F)F)cc4Cl)C3)C[C@H]2N1 [Example 62]; 0.009
C[C@H]1O[C@H]2CCN(C(=O)N3CCC(Cc4ccc(C(F)(F)F)cc4)CC3)C[C@H]2NC1=O [Example 67]; 0.12

(A) O=C1CO[C@@H]2CCN(C(=O)N3CCC(COc4ccc(C(F)(F)F)nc4)CC3)C[C@@H]2N1 [Example 42]
(B) C[C@H]1CN(C(=O)N2CC[C@@H]3OCC(=O)N[C@@H]3C2)CC[C@H]1COc1ccc(F)cc1Cl [Example 74]
(C) O=C1CO[C@H]2CCN(C(=O)N3CC(OCc4ccc(OC(F)(F)F)cc4F)C3)C[C@H]2N1 [Example 77]
query: Exam item: list the entries in increasing order of IC50. List the labels according to the requested ordering.
result: B, C, A
(B: 0.003 µM, C: 0.016 µM, A: 1.2 µM)

(A) O=C1CO[C@H]2CCN(C(=O)N3CCC(COc4ccc(F)cc4F)CC3)C[C@H]2N1 [Example 32]
(B) O=C1CO[C@H]2CCN(C(=O)N3CCC(Cc4ccc(C(F)(F)F)cc4)CC3)C[C@H]2N1 (racemic) [Example 11]
query: Between item A and item B , which reported IC50 is smaller? // return label of chosen record
result: A

====

TEST_TARGET: MAGL (recombinant wild-type) (Homo sapiens (Human))
EXPERIMENTAL_DETAILS: 4-NPA assay: MAGL inhibitory activity by hydrolysis of 4-nitrophenylacetate (absorbance at 405 nm)
MEASUREMENT_PARAMETERS: measured in 4-NPA assay (footnote [a]); 1 nM MAGL, 300 μM 4-nitrophenylacetate
ENDPOINT: IC50 (µM)

(a) O=C1CO[C@H]2CCN(C(=O)N3CC(OCc4ccc(C(F)(F)F)cc4F)C3)C[C@H]2N1 [Example 29]
(b) O=C1CO[C@@H]2CCN(C(=O)N3CC(OCc4ccc(C(F)(F)F)cc4F)C3)C[C@@H]2N1 [Example 30]
(c) O=C1CO[C@H]2CCN(C(=O)N3CCC(Oc4cccc(C(F)(F)F)c4)CC3)C[C@H]2N1 [Example 44]
query: Sort low-to-high on IC50, please. List the labels according to the requested ordering.
result: a, c, b
(a: 0.005 µM, c: 0.038 µM, b: 0.273 µM)

====

TEST_TARGET: MAGL (recombinant wild-type) (Homo sapiens (Human))
EXPERIMENTAL_DETAILS: 4-NPA assay: MAGL inhibitory activity by hydrolysis of 4-nitrophenylacetate (absorbance at 405 nm)
MEASUREMENT_PARAMETERS: measured in 4-NPA assay (footnote [a]); 1 nM MAGL, 300 μM 4-nitrophenylacetate
pIC50: −log10 of the molar value.
ENDPOINT: pIC50

CC1C(OCc2ccc(C(F)(F)F)cc2)CN1C(=O)N1CC[C@@H]2OCC(=O)N[C@@H]2C1 (some centres unmarked) [Example 105]; 6.55
O=C1CO[C@H]2CCN(C(=O)N3CCC(F)(COc4ccc(F)cc4Cl)CC3)C[C@H]2N1 [Example 64]; 7.40
O=C1CO[C@H]2CCN(C(=O)N3CCC(Cc4ccc(C(F)(F)F)cc4)CC3)C[C@H]2N1 [Example 8]; 7.89
Cc1cc(C(F)(F)F)ccc1CC1CCN(C(=O)N2CC[C@@H]3OCC(=O)N[C@@H]3C2)CC1 [Example 98]; 8.00

(P) CC(C)(C)c1csc(CC2CCN(C(=O)N3CC[C@@H]4OCC(=O)N[C@@H]4C3)CC2)n1 (racemic) [Example 3]
(Q) O=C1CO[C@H]2CCN(C(=O)N3CCC(Cc4ccc(C(F)(F)F)cc4C4CC4)CC3)C[C@H]2N1 [Example 95]
query: Please tell me which of the two, P or Q , has the higher reported pIC50 value. // return label of chosen record
result: Q

====

pIC50: −log10 of the molar value.
Endpoint: pIC50. System: MAGL (Homo sapiens (Human), UniProt Q99685). Items follow.
ENDPOINT: pIC50

Take a look at these entries with their results.
Cc1ccc(COC2CN(C(=O)N3CC[C@@H]4OCC(=O)N[C@@H]4C3)C2)c(C(F)(F)F)c1; 8.00
O=C1CO[C@H]2CCN(C(=O)N3CC(OCc4ccc(C(F)(F)F)cn4)C3)C[C@H]2N1; 7.14

(A) O=C1CO[C@H]2CCN(C(=O)N3CC(Oc4cccc(N5CC6(CCCO6)C5)c4Cl)C3)C[C@H]2N1
(B) O=C1CO[C@H]2CCN(C(=O)N3CCC(Oc4ccc(C(F)(F)F)c(Cl)c4)CC3)C[C@H]2N1
query: Between item A and item B , which reported pIC50 is smaller? // return label of chosen record
result: A

====

TEST_TARGET: MAGL (recombinant wild-type) (Homo sapiens (Human), UniProt Q99685)
EXPERIMENTAL_DETAILS: 4-NPA assay: MAGL inhibitory activity by hydrolysis of 4-nitrophenylacetate (absorbance at 405 nm)
MEASUREMENT_PARAMETERS: measured in 4-NPA assay (footnote [a]); 1 nM MAGL, 300 μM 4-nitrophenylacetate
pIC50: −log10 of the molar value.
ENDPOINT: pIC50

Take a look at these entries with their results.
O=C1CO[C@H]2CCN(C(=O)N3CCC(Cc4ccc(Cl)cc4)CC3)C[C@H]2N1 [Example 10]; 7.41
O=C1CO[C@@H]2CCN(C(=O)N3CCC(COc4ccc(OC(F)(F)F)cc4Cl)CC3)C[C@@H]2N1; 6.07
O=C1CO[C@H]2CCN(C(=O)N3CCC(COc4ccc(C(F)(F)F)nc4)CC3)C[C@H]2N1; 6.28

(A) O=C1CO[C@H]2CCN(C(=O)N3CCC(COc4ccc(Cl)cc4F)CC3)C[C@H]2N1
(B) O=C1CO[C@H]2CCN(C(=O)N3CCC(Cc4ccc(C(F)(F)F)cc4)CC3)C[C@@H]2N1 [Example 17]
(C) O=C1CO[C@H]2CCN(C(=O)N3CCC(Cc4ccc(C(F)(F)F)cn4)CC3)C[C@H]2N1
(D) O=C1CO[C@H]2CCN(C(=O)N3CCC(Oc4ccc(C(F)(F)F)cc4)CC3)C[C@H]2N1 [Example 13]
(E) O=C1CO[C@H]2CCN(C(=O)N3CCN(Cc4ccc(C(F)(F)F)cc4)CC3)C[C@H]2N1 (racemic)
query: Rank descending by pIC50. List the labels according to the requested ordering.
result: A, D, B, C, E

====

TEST_TARGET: MAGL (recombinant wild-type) (Homo sapiens (Human))
EXPERIMENTAL_DETAILS: 4-NPA assay: MAGL inhibitory activity by hydrolysis of 4-nitrophenylacetate (absorbance at 405 nm)
Type: biochemical
MEASUREMENT_PARAMETERS: measured in 4-NPA assay (footnote [a]); 1 nM MAGL, 300 μM 4-nitrophenylacetate
ENDPOINT: IC50 (nM)

Take a look at these entries with their results.
O=C1CO[C@H]2CCN(C(=O)N3CCN(Cc4ccc(C(F)(F)F)cc4N4CCCC4)CC3)C[C@H]2N1; 42
O=C1CO[C@H]2CCN(C(=O)N3CC(OCc4cc(C(F)(F)F)c(F)cc4F)C3)C[C@H]2N1; 12
O=C1CO[C@H]2CCN(C(=O)N3CC(F)(COc4ccc(F)cc4Cl)C3)C[C@H]2N1; 223
O=C1CO[C@H]2CCN(C(=O)N3CCC(Cc4ccc(C(F)(F)F)cc4)CC3)C[C@@H]2N1 [Example 14]; 191
O=C1CO[C@H]2CCN(C(=O)N3CCC(COc4ccc(F)cc4Cl)CC3)C[C@H]2N1 [Example 7]; 11

(A) O=C1CO[C@H]2CCN(C(=O)N3CC(OCc4ccc(C(F)(F)F)cc4F)C3)C[C@H]2N1 [Example 27]
(B) O=C1CO[C@H]2CCN(C(=O)N3CCC(OCc4ccccc4Cl)C3)C[C@H]2N1 (some centres unmarked)
query: Between item A and item B , which reported IC50 is smaller? // return label of chosen record
result: A
